Cited source for all entries: PubChem BioAssay (NCI)

Form field: growth inhibition (one value per entry).
Test: NCI Yeast Anticancer Drug Screen. Data for the mlh1 rad18 strain (AID 175)
Conditions: S. cerevisiae mlh1 rad18 strain growth inhibition; at 50.0 µM; hits give high values
The panel holds about 79,000 compounds, 15% with a hit somewhere; the sample as a whole holds those more often.
State just the number; it will be interpreted in %.

compound="CCOP(=O)(OCC)OC1CC(n2cc(C)c(=O)n(C)c2=O)OC1CO[Si](C)(C)C(C)(C)C (configuration not stated)" metric="growth inhibition" unit=% val=-12.7

Q: In one line, give reported growth inhibition of the entry "O=C(c1ccc(F)cc1)c1ccc2ccccc2c1C(=O)O" .
Result: -11.3

Q: Answer with reported growth inhibition of "O=[N+]([O-])c1cc(F)cc(F)c1Nc1ccccc1"
Result: 17.6

Q: Could you please provide reported growth inhibition for "CC(=O)Oc1ccc2c(c1)Cc1cc([N+](=O)[O-])ccc1-2" ? Thanks!
Result: 20.6

Q: For "Cc1ccc(CN2CCCCC2)o1" , write its growth inhibition.
Result: 7.5

Q: Kindly indicate its recorded growth inhibition. Item: "Nc1cccc(CC(=O)c2ccccc2)n1"
Result: -13.1

Q: Fill in growth inhibition for record "CC(C)(C)C(=O)Cn1nnnc1C(=O)C(C)(C)C"
Result: -19.4

Q: Name the recorded growth inhibition of the item "CCOC(=O)c1ccc(NCCCNc2ccc(C(=O)OCC)cc2)cc1" in your answer.
Result: 9.5

Q: Quick one: give measured growth inhibition for "CC(=O)Nc1ccc(/C=N/NC(=O)/C=C/c2ccccc2)cc1"
Result: 2.15

Q: Output growth inhibition of "C=CCc1ccc(OC(=O)Nc2ccc(S(=O)(=O)CC)cc2)c(OC)c1"
Result: -10.3

Q: Please give the documented growth inhibition of COc1ccc(S(=O)Cc2cc(OC)c(OC)c(OC)c2)cc1 (configuration not stated)
Result: -23.7

Q: Respond only with growth inhibition recorded for Oc1ccc2c(c1)OCC(O)(c1ccccc1O)C2 (configuration not stated)
Result: 15.3

Q: Fill in growth inhibition for record "CN(C)C(=O)NNC(=O)N(C)C"
Result: -0.7

Q: Specify growth inhibition for "CCCCCCCCCCCCCCCCCC(=O)CC(=O)OCC" and stop.
Result: 4.25

Q: Tell us which growth inhibition value is on record for COc1cc2c(c(OC)c1OC)CCC1(C)C(=O)NN=C21 (configuration not stated)
Result: 3.9

Q: Give the measured growth inhibition for "O=C(C/C(=C/c1ccccc1)[N+](=O)[O-])c1ccccc1"
Result: 98.8

Q: Please look at this compound and report its growth inhibition: NC(=O)CNC(=O)[C@@H]1CC(OCCC(=O)O)CN1C(=O)C1CCCN1C(=O)OCc1ccccc1 (some centres not stated)
Result: 6.75

Q: Identify measured growth inhibition corresponding to Cc1ccc(C2(C)NC(=S)N(NC(N)=S)C2=S)cc1 (configuration not stated)
Result: 21.8

Q: Specify measured growth inhibition for CC1CCCC2(CN=C(Nc3ccccc3)O2)C1 (configuration not stated) .
Result: -6.15

Q: In one line, give reported growth inhibition of the entry C=C(C)C1CCC2(CO)C(O)CC3(C)C(CCC4C5(C)CCC(O)C(C)(C)C5CCC43C)C12 (configuration not stated) .
Result: -6.6

Q: Determine its reported growth inhibition: "CCOC(=O)Cc1ccc(-c2csc(Nc3ccc(Cl)cc3)n2)cc1"
Result: 48.9

Q: Report growth inhibition for "CCCCN=C1Nc2nc(=NCCCC)nc3c(Br)cc(Br)c(n23)N1"
Result: 21.9

Q: In one line, give reported growth inhibition of the entry "Clc1ccc(-c2cc(-c3ccc(Cl)cc3)n(-c3ccccc3)n2)cc1" .
Result: -9.2

Q: Specify growth inhibition for "COC1=NS(=O)(=O)C2(O1)c1ccccc1-c1ccccc12" and stop.
Result: 12.3

Q: Give me measured growth inhibition, please, for this compound: "Cc1c(O)cccc1C(=O)C[n+]1ccccc1"
Result: 1.25

Q: // Input: "ON(C(=NCc1ccccc1)c1ccccc1)c1ccccc1" . Output its growth inhibition only.
Result: 14.7

Q: Return growth inhibition for the following compound: "COC1=CC(=O)C(C)=CC1=O"
Result: 7.5

Q: Give the reported growth inhibition for this compound. "CC(C)(C)OC(=O)Cc1ccc([N+](=O)[O-])cc1"
Result: -17.7

Q: // fetch growth inhibition given entry "COc1ccc(Cc2c3cc(OC)c(OC)cc3cc[n+]2C)cc1"
Result: -6.15

Q: Input N#CCCC(CC#N)C1([N+](=O)[O-])CCCCC1 (configuration not stated) , output reported growth inhibition.
Result: 3.55

Q: Provide one value: measured growth inhibition of "COc1cc(OC)cc(Oc2nc3ccc(C(F)(F)F)cc3nc2-c2ccccc2)c1"
Result: -14.3
